Data origin: paper PMC5540273

# System: GAK;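 also: KINOMEscan kinase panel screen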
# condition-details: concentration: 1 μM, replicates: in singlicate; n = 1
Would you mind classing the entries by %Inh? Ranges: lowest (below 20%), middle (20% to below 50%), highest (50% or more)

- compound: "O=C(Nc1n[nH]c2cc(-c3cccs3)ccc12)C1CC1 [SB-731284]"
  discrete-label: "lowest"
- compound: "Cl.Cl.NCC(NC(=O)c1cc(-c2cccnc2)c(-c2ccnc3[nH]ccc23)s1)c1ccccc1 (stereo not shown) [GSK1323434]"
  discrete-label: "highest"
- compound: "O=C(Nc1n[nH]c2nc(-c3cccc(O)c3)ccc12)C1CC1 [SB-711805]"
  discrete-label: "middle"
- compound: "Nc1cccc(-c2ccc3c(N)n[nH]c3c2)c1 [GSK2193613]"
  discrete-label: "middle"
- compound: "CCOc1nccc(-c2c(-c3ccc(F)cc3)ncn2C2CCNCC2)n1 [SB-249175]"
  discrete-label: "lowest"
- compound: "CC(C)c1nc(-c2cccc(NS(=O)(=O)c3c(F)cccc3F)c2)c(-c2ccnc(Nc3ccc(N4CCOCC4)nc3)n2)s1.Cl [GSK1723980]"
  discrete-label: "highest"
- compound: "Cn1cc(-c2ccc3c(c2)CCN3C(=O)Cc2cc(F)cc(F)c2F)c2c(N)ncnc21 [GSK2634140]"
  discrete-label: "lowest"
- compound: "Cl.Cl.NC(CNC(=O)c1cc(Br)c(-c2ccnc3[nH]ccc23)s1)c1ccccc1 (stereo not shown) [GSK1322949]"
  discrete-label: "highest"
- compound: "COc1ccc(NC(=O)c2ccoc2)cc1-c1ccc(C(=O)NCC2CC2)cc1 [GW810437]"
  discrete-label: "lowest"
- compound: "COc1cccc(C2=C(Nc3cccc(O)c3)C(=O)NC2=O)c1 [SB-390771]"
  discrete-label: "lowest"
- compound: "CN(C)CCNS(=O)(=O)c1ccc(-c2ccnc3[nH]ccc23)cc1 [GSK977620]"
  discrete-label: "lowest"
- compound: "CNc1nccc(-c2ccc3c(N)n[nH]c3c2)n1 [GSK2206003]"
  discrete-label: "highest"
- compound: "Cn1cc(-c2ccc3c(c2)CCN3C(=O)Cc2cc(F)cc(C(F)(F)F)c2)c2c(N)ncnc21 [GSK2635225]"
  discrete-label: "middle"
- compound: "Cc1cccc(Nc2nc(NCCN)ncc2C(N)=O)c1 [GSK1292139]"
  discrete-label: "highest"
- compound: "Cc1ccc(O)cc1Nc1ccnc2cc(-c3ccc(CN4CCCCC4)o3)ccc12 [GW557777]"
  discrete-label: "highest"
- compound: "COc1cc(Nc2nccc(N3CCC(NC(=O)Nc4ccc5c(c4)OCO5)C3)n2)cc(OC)c1OC (stereo not shown) [GSK1379766]"
  discrete-label: "middle"
- compound: "Cc1ccc(NC(=O)c2ccc(Cl)c(Cl)c2)cc1-c1ccc(C(=O)Nc2ccncc2)cc1 [GSK1398460]"
  discrete-label: "middle"
- compound: "COc1cccc(NC(=O)NCCNc2ccnc(Nc3ccc(F)cc3)n2)c1 [GSK1379879]"
  discrete-label: "lowest"
- compound: "NCCC(NC(=O)c1cc(Br)c(-c2ccnc3[nH]ccc23)s1)c1ccccc1.O=C(O)C(F)(F)F.O=C(O)C(F)(F)F (stereo not shown) [GSK1307810]"
  discrete-label: "highest"
- compound: "COc1cccc(CC(=O)N2CCc3cc(-c4cn(C)c5ncnc(N)c45)ccc32)c1 [GSK2608899]"
  discrete-label: "middle"
- compound: "COc1ccc(C2=C(Nc3cccc(O)c3)C(=O)NC2=O)cc1 [SB-390766]"
  discrete-label: "lowest"
- compound: "COc1ccc(C)c(Nc2ccnc(Nc3ccc(-c4cnc[nH]4)cc3)n2)c1.Cl [GW784041]"
  discrete-label: "highest"
- compound: "COc1cc(Nc2nccc(N3CCC(NS(=O)(=O)c4ccc(NC(C)=O)cc4)CC3)n2)cc(OC)c1OC [GSK1379825]"
  discrete-label: "middle"
- compound: "CCn1c(-c2nonc2N)nc2c(-c3ccccc3)ncc(OCCCN)c21.O=C(O)C(F)(F)F.O=C(O)C(F)(F)F [GSK260205]"
  discrete-label: "highest"
- compound: "CCNC(=O)/C=C/c1n[nH]c2cc(Sc3ccccc3C(=O)NC)ccc12"
  discrete-label: "lowest"
- compound: "Cc1cccc(Nc2nc(N[C@H]3CCCC[C@H]3N)ncc2C(N)=O)c1.Cl [GSK986310]"
  discrete-label: "highest"
- compound: "Nc1ncnc2scc(-c3ccc(NC(=O)Cc4cc(F)ccc4F)cc3)c12.O=C(O)C(F)(F)F [SB-731254-M]"
  discrete-label: "middle"
- compound: "COc1cccc(-c2nc(-c3ccccc3)[nH]c2-c2ccncc2)c1 [SB-610250]"
  discrete-label: "highest"
- compound: "Cc1cc(-c2c(-c3ccc(F)cc3)ncn2CCCN2CCOCC2)nc(N)n1 [SB-222517]"
  discrete-label: "lowest"
- compound: "COC(=O)Nc1nc2ccc(Oc3ccc(NC(=O)Nc4cc(C(F)(F)F)ccc4F)cc3)cc2[nH]1.Cl [GW654607]"
  discrete-label: "lowest"
